Biological target: GST
Assay: SPOT array
Conditions: median of control spots 978
For each record, write down the corresponding SPOT intensity.
Answers are plain numbers.

Record excerpt, results attached:
{"binder": "AATTSTPPLPRRRAT", "SPOT intensity": 1}
{"binder": "ALRRRLPVTRSKINW", "SPOT intensity": 2}
{"binder": "YYNRQELALPKRMSS", "SPOT intensity": 3}

For every item below, please supply its SPOT intensity.
1. RKQRSIPLSPIVPES
2. GATNNAPTLPKRKNP

1
0
